Could you please report measured zone of inhibition at 100 µg/disc for the items listed next?
# Tested on: Candida albicans
# RUN_DESCRIPTION: Antifungal activity against Candida albicans at 100 ug/disk after 48 hr by paper disk diffusion method
# Format: functional
# CONDITION_LABEL: read-out: IZ
Answer with a number only, understood to be in mm.

-- ask Please look up its zone of inhibition at 100 µg/disc: Cc1cc(=O)oc2cc(Oc3nc(Nc4ccc(N5C(=O)C(CN6CCN(c7ccccn7)CC6)SC5c5ccccc5Br)cc4)nc(N(C)C)n3)ccc12 (configuration not stated)
-- reply 25

-- ask Please look up its zone of inhibition at 100 µg/disc: COc1ccc(C2SCC(=O)N2c2ccc(Nc3nc(Oc4ccc5c(C)cc(=O)oc5c4)nc(N(C)C)n3)cc2)cc1 (configuration not stated)
-- reply 20

-- ask Please look up its zone of inhibition at 100 µg/disc: Cc1cc(=O)oc2cc(Oc3nc(Nc4ccc(N5C(=O)CSC5c5ccccc5)cc4)nc(N(C)C)n3)ccc12 (configuration not stated)
-- reply 10

-- ask Please look up its zone of inhibition at 100 µg/disc: Cc1cc(=O)oc2cc(Oc3nc(Nc4ccc(N5C(=O)CSC5c5ccc(Cl)cc5)cc4)nc(N(C)C)n3)ccc12 (configuration not stated)
-- reply 22

-- ask Please look up its zone of inhibition at 100 µg/disc: COc1ccc(/C=N/c2ccc(Nc3nc(Oc4ccc5c(C)cc(=O)oc5c4)nc(N(C)C)n3)cc2)cc1
-- reply 17

-- ask Please look up its zone of inhibition at 100 µg/disc: Cc1cc(=O)oc2cc(Oc3nc(Nc4ccc(N5C(=O)C(CN6CCN(c7ccccn7)CC6)SC5c5ccc(F)cc5)cc4)nc(N(C)C)n3)ccc12 (configuration not stated)
-- reply 27

-- ask Please look up its zone of inhibition at 100 µg/disc: Cc1cc(=O)oc2cc(Oc3nc(Nc4ccc(N5C(=O)C(CN6CCN(c7ccccn7)CC6)SC5c5ccc(Cl)cc5Cl)cc4)nc(N(C)C)n3)ccc12 (configuration not stated)
-- reply 20

----------
# Test system: Aspergillus clavatus
# RUN_DESCRIPTION: Antifungal activity against Aspergillus clavatus at 100 ug/disc after 48 hr by paper disk diffusion method
# Format: functional
# CONDITION_LABEL: read-out: IZ
MEASURED_ATTRIBUTE: zone of inhibition at 100 µg/disc (mm)
Answer with a number only, understood to be in mm.

-- ask Please look up its zone of inhibition at 100 µg/disc: Cc1ccc(/C=N/c2ccc(Nc3nc(Oc4ccc5c(C)cc(=O)oc5c4)nc(N(C)C)n3)cc2)cc1
-- reply 16

-- ask Please look up its zone of inhibition at 100 µg/disc: COc1ccc(/C=N/c2ccc(Nc3nc(Oc4ccc5c(C)cc(=O)oc5c4)nc(N(C)C)n3)cc2)cc1
-- reply 11

-- ask Please look up its zone of inhibition at 100 µg/disc: Cc1cc(=O)oc2cc(Oc3nc(Nc4ccc(/N=C/c5ccc([N+](=O)[O-])cc5)cc4)nc(N(C)C)n3)ccc12
-- reply 13

-- ask Please look up its zone of inhibition at 100 µg/disc: COc1ccc(C2SC(CN3CCN(c4ccccn4)CC3)C(=O)N2c2ccc(Nc3nc(Oc4ccc5c(C)cc(=O)oc5c4)nc(N(C)C)n3)cc2)cc1 (configuration not stated)
-- reply 19

-- ask Please look up its zone of inhibition at 100 µg/disc: Cc1cc(=O)oc2cc(Oc3nc(Nc4ccc(N5C(=O)CSC5c5ccc(O)cc5)cc4)nc(N(C)C)n3)ccc12 (configuration not stated)
-- reply 18

-- ask Please look up its zone of inhibition at 100 µg/disc: Cc1cc(=O)oc2cc(Oc3nc(Nc4ccc(N5C(=O)C(CN6CCN(c7ccccn7)CC6)SC5c5ccccc5Br)cc4)nc(N(C)C)n3)ccc12 (configuration not stated)
-- reply 23

-- ask Please look up its zone of inhibition at 100 µg/disc: Cc1cc(=O)oc2cc(Oc3nc(Nc4ccc(/N=C/c5ccc(O)cc5)cc4)nc(N(C)C)n3)ccc12
-- reply 14

----------
# Tested on: Proteus vulgaris
# RUN_DESCRIPTION: Antibacterial activity against Proteus vulgaris after 24 hr by agar streak dilution method
# Assay type: functional
Could you please report measured MIC for the items listed next?
Answer with a number only, understood to be in µg/mL.

-- ask Please look up its MIC: Cc1ccc(/C=N/c2ccc(Nc3nc(Oc4ccc5c(C)cc(=O)oc5c4)nc(N(C)C)n3)cc2)cc1
-- reply 100

-- ask Please look up its MIC: Cc1cc(=O)oc2cc(Oc3nc(Nc4ccc(N5C(=O)C(CN6CCN(c7ccccn7)CC6)SC5c5ccccc5C(=O)O)cc4)nc(N(C)C)n3)ccc12 (configuration not stated)
-- reply 100

-- ask Please look up its MIC: Cc1cc(=O)oc2cc(Oc3nc(Nc4ccc(N5C(=O)C(CN6CCN(c7ccccn7)CC6)SC5c5ccc([N+](=O)[O-])cc5)cc4)nc(N(C)C)n3)ccc12 (configuration not stated)
-- reply 100

-- ask Please look up its MIC: Cc1cc(=O)oc2cc(Oc3nc(Nc4ccc(N5C(=O)CSC5c5ccc(O)cc5)cc4)nc(N(C)C)n3)ccc12 (configuration not stated)
-- reply 12.5

-- ask Please look up its MIC: Cc1cc(=O)oc2cc(Oc3nc(Nc4ccc(N5C(=O)CSC5c5cccc(F)c5)cc4)nc(N(C)C)n3)ccc12 (configuration not stated)
-- reply 50

-- ask Please look up its MIC: Cc1cc(=O)oc2cc(Oc3nc(Nc4ccc(N5C(=O)C(CN6CCN(c7ccccn7)CC6)SC5c5ccccc5)cc4)nc(N(C)C)n3)ccc12 (configuration not stated)
-- reply 100

-- ask Please look up its MIC: Cc1cc(=O)oc2cc(Oc3nc(Nc4ccc(/N=C/c5cccc(F)c5)cc4)nc(N(C)C)n3)ccc12
-- reply 100

----------
# Tested on: Escherichia coli
# RUN_DESCRIPTION: Antibacterial activity against Escherichia coli after 24 hr by agar streak dilution method
# Format: functional
Could you please report measured MIC for the items listed next?
Answer with a number only, understood to be in µg/mL.

-- ask Please tell me: MIC of COc1ccc(C2SCC(=O)N2c2ccc(Nc3nc(Oc4ccc5c(C)cc(=O)oc5c4)nc(N(C)C)n3)cc2)cc1OC (configuration not stated) , system Escherichia coli?
-- reply 100

-- ask Please tell me: MIC of Cc1cc(=O)oc2cc(Oc3nc(Nc4ccc(/N=C/c5ccc(O)cc5O)cc4)nc(N(C)C)n3)ccc12 , system Escherichia coli?
-- reply 25

-- ask Please tell me: MIC of Cc1cc(=O)oc2cc(Oc3nc(Nc4ccc(/N=C/c5ccc([N+](=O)[O-])cc5)cc4)nc(N(C)C)n3)ccc12 , system Escherichia coli?
-- reply 100

-- ask Please tell me: MIC of COc1ccc(C2SC(CN3CCN(c4ccccn4)CC3)C(=O)N2c2ccc(Nc3nc(Oc4ccc5c(C)cc(=O)oc5c4)nc(N(C)C)n3)cc2)cc1OC (configuration not stated) , system Escherichia coli?
-- reply 100

-- ask Please tell me: MIC of Cc1cc(=O)oc2cc(Oc3nc(Nc4ccc(N5C(=O)C(CN6CCN(c7ccccn7)CC6)SC5c5cccc(F)c5)cc4)nc(N(C)C)n3)ccc12 (configuration not stated) , system Escherichia coli?
-- reply 6.25

-- ask Please tell me: MIC of Cc1cc(=O)oc2cc(Oc3nc(Nc4ccc(N5C(=O)C(CN6CCN(c7ccccn7)CC6)SC5c5ccc(O)cc5)cc4)nc(N(C)C)n3)ccc12 (configuration not stated) , system Escherichia coli?
-- reply 6.25

-- ask Please tell me: MIC of Cc1cc(=O)oc2cc(Oc3nc(Nc4ccc(/N=C/c5cccc(F)c5)cc4)nc(N(C)C)n3)ccc12 , system Escherichia coli?
-- reply 50

----------
Could you please report measured MIC for the items listed next?
# Test system: Aspergillus clavatus
# RUN_DESCRIPTION: Antifungal activity against Aspergillus clavatus after 48 hr by agar streak dilution method
# Format: functional
Answer format: number, then unit.

-- ask Please tell me: MIC of COc1ccc(C2SCC(=O)N2c2ccc(Nc3nc(Oc4ccc5c(C)cc(=O)oc5c4)nc(N(C)C)n3)cc2)cc1 (stereo unspecified) , system Aspergillus clavatus?
-- reply 100 µg/mL

-- ask Please tell me: MIC of Cc1cc(=O)oc2cc(Oc3nc(Nc4ccc(/N=C/c5ccccc5Br)cc4)nc(N(C)C)n3)ccc12 , system Aspergillus clavatus?
-- reply 50 µg/mL

-- ask Please tell me: MIC of Cc1cc(=O)oc2cc(Oc3nc(Nc4ccc(N5C(=O)CSC5c5ccccc5Br)cc4)nc(N(C)C)n3)ccc12 (stereo unspecified) , system Aspergillus clavatus?
-- reply 50 µg/mL

-- ask Please tell me: MIC of Cc1cc(=O)oc2cc(Oc3nc(Nc4ccc(N5C(=O)CSC5c5ccc(Cl)cc5Cl)cc4)nc(N(C)C)n3)ccc12 (stereo unspecified) , system Aspergillus clavatus?
-- reply 50 µg/mL

-- ask Please tell me: MIC of Cc1cc(=O)oc2cc(Oc3nc(Nc4ccc(N5C(=O)C(CN6CCN(c7ccccn7)CC6)SC5c5ccccc5C(=O)O)cc4)nc(N(C)C)n3)ccc12 (stereo unspecified) , system Aspergillus clavatus?
-- reply 100 µg/mL

-- ask Please tell me: MIC of Cc1cc(=O)oc2cc(Oc3nc(Nc4ccc(N5C(=O)CSC5c5ccccc5C(=O)O)cc4)nc(N(C)C)n3)ccc12 (stereo unspecified) , system Aspergillus clavatus?
-- reply 100 µg/mL

-- ask Please tell me: MIC of Cc1cc(=O)oc2cc(Oc3nc(Nc4ccc(N5C(=O)C(CN6CCN(c7ccccn7)CC6)SC5c5ccccc5Br)cc4)nc(N(C)C)n3)ccc12 (stereo unspecified) , system Aspergillus clavatus?
-- reply 12.5 µg/mL

-- ask Please tell me: MIC of Cc1cc(=O)oc2cc(Oc3nc(Nc4ccc(N5C(=O)CSC5c5ccc(F)cc5)cc4)nc(N(C)C)n3)ccc12 (stereo unspecified) , system Aspergillus clavatus?
-- reply 25 µg/mL

-- ask Please tell me: MIC of Cc1cc(=O)oc2cc(Oc3nc(Nc4ccc(N5C(=O)CSC5c5ccccc5)cc4)nc(N(C)C)n3)ccc12 (stereo unspecified) , system Aspergillus clavatus?
-- reply 100 µg/mL

-- ask Please tell me: MIC of Cc1cc(=O)oc2cc(Oc3nc(Nc4ccc(/N=C/c5ccc(O)cc5)cc4)nc(N(C)C)n3)ccc12 , system Aspergillus clavatus?
-- reply 100 µg/mL

-- ask Please tell me: MIC of Cc1cc(=O)oc2cc(Oc3nc(Nc4ccc(N5C(=O)CSC5c5ccc(O)cc5)cc4)nc(N(C)C)n3)ccc12 (stereo unspecified) , system Aspergillus clavatus?
-- reply 50 µg/mL

-- ask Please tell me: MIC of Cc1cc(=O)oc2cc(Oc3nc(Nc4ccc(/N=C/c5ccc(O)cc5O)cc4)nc(N(C)C)n3)ccc12 , system Aspergillus clavatus?
-- reply 100 µg/mL

-- ask Please tell me: MIC of Cc1cc(=O)oc2cc(Oc3nc(Nc4ccc(/N=C/c5ccc(F)cc5)cc4)nc(N(C)C)n3)ccc12 , system Aspergillus clavatus?
-- reply 50 µg/mL

-- ask Please tell me: MIC of Cc1cc(=O)oc2cc(Oc3nc(Nc4ccc(N5C(=O)C(CN6CCN(c7ccccn7)CC6)SC5c5ccc(Cl)c(Cl)c5)cc4)nc(N(C)C)n3)ccc12 (stereo unspecified) , system Aspergillus clavatus?
-- reply 50 µg/mL

-- ask Please tell me: MIC of Cc1cc(=O)oc2cc(Oc3nc(Nc4ccc(/N=C/c5ccc(Cl)cc5)cc4)nc(N(C)C)n3)ccc12 , system Aspergillus clavatus?
-- reply 50 µg/mL

-- ask Please tell me: MIC of COc1ccc(/C=N/c2ccc(Nc3nc(Oc4ccc5c(C)cc(=O)oc5c4)nc(N(C)C)n3)cc2)cc1OC , system Aspergillus clavatus?
-- reply 100 µg/mL
